B1: CPEB3 Ribozyme (parent)
chain: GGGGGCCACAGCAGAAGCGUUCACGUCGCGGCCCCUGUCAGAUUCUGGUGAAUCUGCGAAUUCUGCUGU

# Variants of: B1
# assay.info: self-cleavage, relative activity (ratio to wild type); higher = more cleavage; co-transcriptional
test.readout: self-cleavage
Keep the answer to the number alone.

The examples below pair each entry with its known result.
GGGGGCCACAGCAGAAGCGUUCACGUCGGGGCCCCUGUCAGAUUCUGUUGAAUCUGCGAAUUCUGCUGU : 0.602
GGGGGCCACAGCAGAAGCGUUCACGUCGCGGCCCCUGUCGGAUUCUGGUGAAUCUGCGAAUCCUGCUGU : 0.649
GGGGGCCACAGGAGAAGCGUUCACGUCGCGGCCCCUGUCAGAUUCUGGUGAAUCUGCGACUUCUGCUGU : 0.277
GGGGGCCACAGCAGAUGCGUUCACGUCGCGGCCCCUGUCAGAUUCUGGUGAAGCUGCGAAUUCUGCUGU : 0.549
GGGGGCCACAGCAGAAGCGUUCACGUCGCGCCCCCUGUCAGAUUCUGGGGAAUCUGCGAAUUCUGCUGU : 0.175
GGGGGCCACAGCAGAAGCUUUCACGUCGCGGCCCCUGUCAGAUUCUGGUGAAUCUGCGAAUUCUGCAGU : 0.479

For the variant `GGGGGCCACAGCAGAAGCGUUAACGUCGCGGCCCCUGUCAGAUUCUGGUGAAUCUGCGAAUUCUGCGGU` , what self-cleavage is on record?
0.27

For the variant `GGGGGCCACAUCAGAAGCGUUCACGUCGCGGCCCCUGUCAGAGUCUGGUGAAUCUGCGAAUUCUGCUGU` , what self-cleavage is on record?
0.302

For the variant `GGGGGCCACAGCAGAAGCGUUCACGUCGCGGCCCCUGUAAGGUUCUGGUGAAUCUGCGAAUUCUGCUGU` , what self-cleavage is on record?
0.35

For the variant `GGGGGCCACAGCAGAAGCGUUCACGUCGCGGCCCCUGUCAGUUUCUGAUGAAUCUGCGAAUUCUGCUGU` , what self-cleavage is on record?
0.968

For the variant `GGCGGCCACAGCAGAUGCGUUCACGUCGCGGCCCCUGUCAGAUUCUGGUGAAUCUGCGAAUUCUGCUGU` , what self-cleavage is on record?
0.0415

For the variant `GGGGGCCACAGCAGAAGCGUUCACGUCGCGGCGCCUGUCAGAUUCUGGUGUAUCUGCGAAUUCUGCUGU` , what self-cleavage is on record?
0.415
